This collection of values is drawn from the kinase profiling compilation of Christmann-Franck et al. (2016).

EXPERIMENTAL TARGET: MAP3K5 (human)
TEST METHOD NOTES: KINOMEscan competition binding
TEST CONDITIONS: compound 10.0 µM
MEASURED ENDPOINT: kinase still bound, per cent of control (%)

INSERT INTO measurements (entry_smiles, unit_info, endpoint_value) VALUES
  ('COc1ccc(N(C(=O)Oc2c(C)cccc2C)c2ccnc(Nc3ccc(N4CCN(C)CC4)cc3)n2)c(OC)c1', '%', 100),
  ('C=CC(=O)Nc1ccc(CN(C(=O)Nc2c(Cl)c(OC)cc(OC)c2Cl)c2cc(Nc3ccc(N4CCN(C)CC4)cc3)ncn2)cc1', '%', 100),
  ('COc1cc(N2CCN(C)CC2)ccc1Nc1ncc2c(n1)N(C)c1ccccc1C(=O)N2C', '%', 100),
  ('CCN1CCN(C(=O)Cc2ccc(Nc3ncc(F)c(Nc4ccc(C(=O)Nc5ccccc5Cl)cc4)n3)cc2)CC1', '%', 100),
  ('O=c1cc(N2CCOCC2)oc2c(-c3cccc4c3sc3ccccc34)cccc12', '%', 100),
  ('CCN(CC)CCCCNc1ncc2c(n1)N(C)C(=O)N(c1c(Cl)c(OC)cc(OC)c1Cl)C2', '%', 100),
  ('O=C1NC(=O)/C(=C/c2ccc3nccc(-c4ccncc4)c3c2)S1', '%', 58),
  ('CNC(=O)c1ccc(Nc2cc(Nc3ccccc3S(=O)(=O)C(C)C)c3cc[nH]c3n2)nc1', '%', 100),
  ('O=C(Nc1cccc(Nc2ncc(Br)c(NCCc3cnc[nH]3)n2)c1)N1CCCC1', '%', 24),
  ('COc1cc(C(=O)N2CCC(N3CCN(C)CC3)CC2)ccc1Nc1ncc2c(n1)N(C)c1ccccc1C(=O)N2C', '%', 100),
  ('COc1cc2ncnc(-n3nc(-c4ccccn4)nc3N)c2cc1OC', '%', 100),
  ('Cc1n[nH]c2ccc(-c3cncc(OC[C@@H](N)Cc4c[nH]c5ccccc45)c3)cc12', '%', 100),
  ('COc1cc2ncn(-c3cc(OCc4ccccc4C(F)(F)F)c(C(N)=O)s3)c2cc1OC', '%', 87),
  ('C=CC(=O)Nc1cc(-n2c(=O)ccc3cnc4ccc(-c5cn[nH]c5)cc4c32)ccc1C', '%', 100),
  ('COCC(=O)NC/C=C/c1ccc2ncnc(Nc3ccc(Oc4ccc(C)nc4)c(C)c3)c2c1', '%', 90),
  ('CNC(=O)c1cc(Oc2ccc(NC(=O)Nc3ccc(Cl)c(C(F)(F)F)c3)cc2)ccn1', '%', 90),
  ('CN(C)C/C=C/C(=O)Nc1ccc(C(=O)Nc2cccc(Nc3nccc(-c4cccnc4)n3)c2)cc1', '%', 100),
  ('N#CCNC(=O)c1ccc(-c2ccnc(Nc3ccc(N4CCOCC4)cc3)n2)cc1', '%', 100),
  ('NC(=O)Nc1cc(-c2cccc(F)c2)sc1C(=O)N[C@@H]1CCCNC1', '%', 40);

====

Recorded kinase still bound, per cent of control for the following molecules
EXPERIMENTAL TARGET: RPS6KA3 KD1 (human) (UniProt P51812)
Sequence (P51812 whole entry, looked up): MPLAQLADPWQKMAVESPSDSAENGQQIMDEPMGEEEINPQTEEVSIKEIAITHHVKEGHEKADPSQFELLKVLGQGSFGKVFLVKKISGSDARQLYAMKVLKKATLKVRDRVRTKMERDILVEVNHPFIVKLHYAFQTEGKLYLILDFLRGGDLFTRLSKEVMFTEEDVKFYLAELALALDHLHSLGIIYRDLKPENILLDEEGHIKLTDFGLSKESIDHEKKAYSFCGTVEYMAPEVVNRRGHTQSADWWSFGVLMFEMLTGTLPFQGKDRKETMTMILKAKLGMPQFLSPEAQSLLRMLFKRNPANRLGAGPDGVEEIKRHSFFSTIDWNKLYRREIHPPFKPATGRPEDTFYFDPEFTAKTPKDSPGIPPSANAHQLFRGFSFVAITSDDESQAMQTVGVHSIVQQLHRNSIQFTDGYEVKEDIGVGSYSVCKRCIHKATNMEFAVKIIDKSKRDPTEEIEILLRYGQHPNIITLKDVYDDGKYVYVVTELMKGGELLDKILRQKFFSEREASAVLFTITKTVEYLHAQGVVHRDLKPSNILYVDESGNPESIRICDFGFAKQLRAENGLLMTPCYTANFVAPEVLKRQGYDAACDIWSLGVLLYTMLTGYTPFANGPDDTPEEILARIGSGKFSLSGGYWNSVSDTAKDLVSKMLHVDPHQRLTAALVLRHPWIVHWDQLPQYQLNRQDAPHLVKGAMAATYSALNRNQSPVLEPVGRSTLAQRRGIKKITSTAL
TEST METHOD NOTES: KINOMEscan competition binding
TEST CONDITIONS: compound 10.0 µM
MEASURED ENDPOINT: kinase still bound, per cent of control (%)

INSERT INTO measurements (entry_smiles, endpoint_value) VALUES
  ('O=C1NC(=O)/C(=C/c2ccc3nccc(-c4ccncc4)c3c2)S1', 41),
  ('N#CCNC(=O)c1ccc(-c2ccnc(Nc3ccc(N4CCOCC4)cc3)n2)cc1', 100),
  ('NC(=O)Nc1cc(-c2cccc(F)c2)sc1C(=O)N[C@@H]1CCCNC1', 0.95),
  ('O=c1cc(N2CCOCC2)oc2c(-c3cccc4c3sc3ccccc34)cccc12', 84),
  ('COc1cc(C(=O)N2CCC(N3CCN(C)CC3)CC2)ccc1Nc1ncc2c(n1)N(C)c1ccccc1C(=O)N2C', 77),
  ('COc1cc(N2CCN(C)CC2)ccc1Nc1ncc2c(n1)N(C)c1ccccc1C(=O)N2C', 100),
  ('CN(C)C/C=C/C(=O)Nc1ccc(C(=O)Nc2cccc(Nc3nccc(-c4cccnc4)n3)c2)cc1', 62),
  ('CCN(CC)CCCCNc1ncc2cc(-c3cc(OC)cc(OC)c3)c(NC(=O)NC(C)(C)C)nc2n1', 100),
  ('COc1cc2ncnc(-n3nc(-c4ccccn4)nc3N)c2cc1OC', 2.8),
  ('CCN1CCN(C(=O)Cc2ccc(Nc3ncc(F)c(Nc4ccc(C(=O)Nc5ccccc5Cl)cc4)n3)cc2)CC1', 32),
  ('C=CC(=O)Nc1ccc(CN(C(=O)Nc2c(Cl)c(OC)cc(OC)c2Cl)c2cc(Nc3ccc(N4CCN(C)CC4)cc3)ncn2)cc1', 100),
  ('COc1ccc(N(C(=O)Oc2c(C)cccc2C)c2ccnc(Nc3ccc(N4CCN(C)CC4)cc3)n2)c(OC)c1', 37),
  ('CCN(CC)CCCCNc1ncc2c(n1)N(C)C(=O)N(c1c(Cl)c(OC)cc(OC)c1Cl)C2', 100),
  ('CS(=O)(=O)N1CCN(Cc2cc3nc(-c4cccc5[nH]ncc45)nc(N4CCOCC4)c3s2)CC1', 100),
  ('C[C@@H](Oc1cc(-c2cnn(C3CCNCC3)c2)cnc1N)c1c(Cl)ccc(F)c1Cl', 47),
  ('CNC(=O)c1cc(Oc2ccc(NC(=O)Nc3ccc(Cl)c(C(F)(F)F)c3)cc2)ccn1', 81);

====

EXPERIMENTAL TARGET: RPS6KA5 KD1 (human) (UniProt O75582)
Sequence (O75582 whole entry, looked up): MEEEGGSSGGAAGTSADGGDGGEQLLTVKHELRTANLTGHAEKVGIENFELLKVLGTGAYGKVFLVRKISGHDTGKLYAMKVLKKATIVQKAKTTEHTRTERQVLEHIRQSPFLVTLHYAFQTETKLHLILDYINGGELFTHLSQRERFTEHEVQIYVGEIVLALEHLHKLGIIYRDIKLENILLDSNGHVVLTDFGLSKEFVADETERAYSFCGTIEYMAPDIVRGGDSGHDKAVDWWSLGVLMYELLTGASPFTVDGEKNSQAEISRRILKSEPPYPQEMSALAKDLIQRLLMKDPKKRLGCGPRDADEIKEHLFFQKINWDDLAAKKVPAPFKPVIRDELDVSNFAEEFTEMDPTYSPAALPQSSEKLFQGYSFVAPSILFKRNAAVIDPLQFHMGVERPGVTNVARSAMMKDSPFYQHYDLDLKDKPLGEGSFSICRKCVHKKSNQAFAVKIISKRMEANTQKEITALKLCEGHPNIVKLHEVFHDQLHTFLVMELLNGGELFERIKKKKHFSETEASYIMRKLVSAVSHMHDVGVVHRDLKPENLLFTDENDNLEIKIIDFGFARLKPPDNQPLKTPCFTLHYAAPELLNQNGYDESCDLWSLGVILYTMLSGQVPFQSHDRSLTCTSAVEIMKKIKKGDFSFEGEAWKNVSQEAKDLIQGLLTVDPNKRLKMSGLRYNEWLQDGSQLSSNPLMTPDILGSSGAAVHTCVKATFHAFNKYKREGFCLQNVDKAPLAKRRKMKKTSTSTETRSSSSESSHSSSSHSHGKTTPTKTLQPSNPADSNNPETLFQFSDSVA
TEST METHOD NOTES: KINOMEscan competition binding
TEST CONDITIONS: compound 10.0 µM
MEASURED ENDPOINT: kinase still bound, per cent of control (%)

INSERT INTO assay_data (entry_smiles, measured_endpoint, endpoint_value) VALUES
  ('O=C1NC(=O)/C(=C/c2ccc3nccc(-c4ccncc4)c3c2)S1', 'kinase still bound, per cent of control', 100),
  ('COc1cc(C(=O)N2CCC(N3CCN(C)CC3)CC2)ccc1Nc1ncc2c(n1)N(C)c1ccccc1C(=O)N2C', 'kinase still bound, per cent of control', 96),
  ('COc1cc2ncn(-c3cc(OCc4ccccc4C(F)(F)F)c(C(N)=O)s3)c2cc1OC', 'kinase still bound, per cent of control', 100),
  ('N#CCNC(=O)c1ccc(-c2ccnc(Nc3ccc(N4CCOCC4)cc3)n2)cc1', 'kinase still bound, per cent of control', 100),
  ('CCN(CC)CCCCNc1ncc2cc(-c3cc(OC)cc(OC)c3)c(NC(=O)NC(C)(C)C)nc2n1', 'kinase still bound, per cent of control', 100),
  ('O=c1cc(N2CCOCC2)oc2c(-c3cccc4c3sc3ccccc34)cccc12', 'kinase still bound, per cent of control', 100),
  ('CCN(CC)CCCCNc1ncc2c(n1)N(C)C(=O)N(c1c(Cl)c(OC)cc(OC)c1Cl)C2', 'kinase still bound, per cent of control', 100),
  ('Cc1n[nH]c2ccc(-c3cncc(OC[C@@H](N)Cc4c[nH]c5ccccc45)c3)cc12', 'kinase still bound, per cent of control', 11),
  ('COCC(=O)NC/C=C/c1ccc2ncnc(Nc3ccc(Oc4ccc(C)nc4)c(C)c3)c2c1', 'kinase still bound, per cent of control', 99),
  ('CNC(=O)c1cc(Oc2ccc(NC(=O)Nc3ccc(Cl)c(C(F)(F)F)c3)cc2)ccn1', 'kinase still bound, per cent of control', 100),
  ('CNC(=O)c1ccc(Nc2cc(Nc3ccccc3S(=O)(=O)C(C)C)c3cc[nH]c3n2)nc1', 'kinase still bound, per cent of control', 100),
  ('NC(=O)Nc1cc(-c2cccc(F)c2)sc1C(=O)N[C@@H]1CCCNC1', 'kinase still bound, per cent of control', 49),
  ('COc1cc(N2CCN(C)CC2)ccc1Nc1ncc2c(n1)N(C)c1ccccc1C(=O)N2C', 'kinase still bound, per cent of control', 100),
  ('COc1cc2ncnc(-n3nc(-c4ccccn4)nc3N)c2cc1OC', 'kinase still bound, per cent of control', 84);

====

EXPERIMENTAL TARGET: ROCK1 (human)
TEST METHOD NOTES: KINOMEscan competition binding
TEST CONDITIONS: compound 10.0 µM
MEASURED ENDPOINT: kinase still bound, per cent of control (%)

INSERT INTO results (entry_smiles, measured_endpoint, endpoint_value) VALUES
  ('N#CCNC(=O)c1ccc(-c2ccnc(Nc3ccc(N4CCOCC4)cc3)n2)cc1', 'kinase still bound, per cent of control', 2.9),
  ('C[C@@H](Oc1cc(-c2cnn(C3CCNCC3)c2)cnc1N)c1c(Cl)ccc(F)c1Cl', 'kinase still bound, per cent of control', 4),
  ('COc1cc2ncn(-c3cc(OCc4ccccc4C(F)(F)F)c(C(N)=O)s3)c2cc1OC', 'kinase still bound, per cent of control', 4.7),
  ('C=CC(=O)Nc1cc(-n2c(=O)ccc3cnc4ccc(-c5cn[nH]c5)cc4c32)ccc1C', 'kinase still bound, per cent of control', 94),
  ('O=C(Nc1cccc(Nc2ncc(Br)c(NCCc3cnc[nH]3)n2)c1)N1CCCC1', 'kinase still bound, per cent of control', 0.6),
  ('COCC(=O)NC/C=C/c1ccc2ncnc(Nc3ccc(Oc4ccc(C)nc4)c(C)c3)c2c1', 'kinase still bound, per cent of control', 100),
  ('COc1ccc(N(C(=O)Oc2c(C)cccc2C)c2ccnc(Nc3ccc(N4CCN(C)CC4)cc3)n2)c(OC)c1', 'kinase still bound, per cent of control', 65),
  ('CCN1CCN(C(=O)Cc2ccc(Nc3ncc(F)c(Nc4ccc(C(=O)Nc5ccccc5Cl)cc4)n3)cc2)CC1', 'kinase still bound, per cent of control', 81);
